B1: EIF5 (parent)
chain: KQTIGNSCKACGYRGMLDTHHKLC

- Variants of: B1
- procedure details: protein stability index of a GFP-peptide fusion (GPS, HEK-293T) (PSI 1-6); higher = more stable;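 also: lentivirally expressed fusions sorted by FACS into six bins by GFP to DsRed ratio, PSI derived from sequencing read proportions per bin multiplied by bin number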
- experimental conditions: c terminus: a fixed tail appended
metric name: protein stability index
The response must contain the number and no unit.

Examples with answers:
sequence variant	protein stability index
A10T	3.36
Q2Y	2.19
T19Q	3.03
C11K	1.88
N6W	2.62
K22M	3.09
H20R	2.28
L23P	3.28

Report measured protein stability index; entry is `A10W`
3.01

Return value of protein stability index for input `H20V` , no commentary.
2.15

Could you please provide reported protein stability index for `T3Y` ? Thanks!
3.35

Output measured protein stability index for this item: `T19M`
3.03

Give the reported value of protein stability index for this record: `C24W`
2.21

Annotate the variant `K22F` with its measured protein stability index.
2.46

Return protein stability index for the following variant: `G15D`
2.94

Give protein stability index for the following variant: `T3S`
3.19

Identify protein stability index associated with the variant `K22D`
3.72

Report measured protein stability index; entry is `C8D`
2.48

Determine from records and report protein stability index for `H20P`
2.47

Identify measured protein stability index associated with `K1N`
3.22

Identify measured protein stability index corresponding to `M16H`
4.16
